- measurement target: Excitatory amino acid transporter 1 (Rattus norvegicus)
- Sequence (P24942 whole entry): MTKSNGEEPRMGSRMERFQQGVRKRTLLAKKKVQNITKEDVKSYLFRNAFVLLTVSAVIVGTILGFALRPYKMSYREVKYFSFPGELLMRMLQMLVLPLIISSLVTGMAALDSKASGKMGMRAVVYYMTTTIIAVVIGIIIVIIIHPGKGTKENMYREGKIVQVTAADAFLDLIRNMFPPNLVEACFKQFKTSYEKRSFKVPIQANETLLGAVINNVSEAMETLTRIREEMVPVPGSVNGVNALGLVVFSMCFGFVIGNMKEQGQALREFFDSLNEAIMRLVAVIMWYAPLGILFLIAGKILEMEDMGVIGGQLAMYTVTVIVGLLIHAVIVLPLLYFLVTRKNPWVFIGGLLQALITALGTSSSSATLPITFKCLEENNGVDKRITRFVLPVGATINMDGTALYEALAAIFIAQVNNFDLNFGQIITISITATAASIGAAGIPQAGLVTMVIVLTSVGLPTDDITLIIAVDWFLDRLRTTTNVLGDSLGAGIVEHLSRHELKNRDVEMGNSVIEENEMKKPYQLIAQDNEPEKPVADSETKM
- method: Activity at rat EAAT1 expressed in TSA201 cells assessed as inhibition of Glu-induced fluorescent response by FLIPR membrane potential blue assay
pIC50: −log10 of the molar value.

molecule: COc1ccc(C2C(C#N)=C(N)OC3=C2C(=O)CC(c2cccc4ccccc24)C3)cc1 (stereo unspecified)
pIC50: 6.01

----------
- measurement target: Excitatory amino acid transporter 3 (Homo sapiens, UniProt P43005)
- Sequence (P43005 whole entry): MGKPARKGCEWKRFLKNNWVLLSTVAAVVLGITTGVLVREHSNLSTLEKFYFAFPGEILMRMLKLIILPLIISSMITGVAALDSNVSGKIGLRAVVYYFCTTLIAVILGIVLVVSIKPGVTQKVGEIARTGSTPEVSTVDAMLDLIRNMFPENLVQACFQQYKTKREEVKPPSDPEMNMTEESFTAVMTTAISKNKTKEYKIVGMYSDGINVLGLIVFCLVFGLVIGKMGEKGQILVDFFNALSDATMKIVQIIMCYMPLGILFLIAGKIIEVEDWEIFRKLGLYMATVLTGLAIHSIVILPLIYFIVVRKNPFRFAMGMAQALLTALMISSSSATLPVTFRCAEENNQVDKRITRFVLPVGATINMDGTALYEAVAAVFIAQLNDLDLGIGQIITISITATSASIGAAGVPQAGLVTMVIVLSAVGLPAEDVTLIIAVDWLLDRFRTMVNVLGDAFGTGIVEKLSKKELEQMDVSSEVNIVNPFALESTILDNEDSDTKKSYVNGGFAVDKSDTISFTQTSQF
- method: Displacement of [3H]D-Asp from human EAAT3 receptor expressed in HEK293 cells
pIC50: −log10 of the molar value.
# pIC50 per record follows

compound: N#CC1=C(N)OC2=C(C(=O)CC(c3ccccc3)C2)C1c1ccccc1F (stereo not given)
pIC50: < 4.00
--
compound: N#CC1=C(N)OC2=C(C(=O)CC(c3ccccc3)C2)C1c1cccs1 (stereo not given)
pIC50: < 4.00
--
compound: N#CC1=C(N)OC2=C(C(=O)CC(c3ccccc3)C2)C1Cc1ccccc1 (stereo not given)
pIC50: < 4.00
--
compound: N#CC1=C(N)OC2=C(C1)C(=O)CC(c1ccccc1)C2 (stereo not given)
pIC50: < 3.50
--
compound: N#CC1=C(N)OC2=C(C(=O)CC(c3ccccc3)C2)C1c1ccc(-c2ccccc2)cc1 (stereo not given)
pIC50: < 4.00
--
compound: N#CC1=C(N)OC2=C(C(=O)CC(c3ccccc3)C2)C1c1c[nH]c2ccccc12 (stereo not given)
pIC50: < 4.00
--
compound: CC1CC(=O)C2=C(C1)OC(N)=C(C#N)C2c1ccc2c(c1)OCO2 (stereo not given)
pIC50: < 3.50
--
compound: COc1cc(C2C(C#N)=C(N)OC3=C2C(=O)CC(c2ccccc2)C3)ccc1OCc1c(F)cccc1Cl (stereo not given)
pIC50: < 4.00
--
compound: CSc1ccc(C2C(C#N)=C(N)OC3=C2C(=O)CC(c2ccccc2)C3)cc1 (stereo not given)
pIC50: < 4.00
--
compound: COc1ccc(C2C(C#N)=C(N)OC3=C2C(=O)CC(c2ccccc2Cl)C3)cc1 (stereo not given)
pIC50: < 3.50
--
compound: N#CC1=C(N)OC2=C(C(=O)CCC2)C1c1ccccc1F (stereo not given)
pIC50: < 3.50
--
compound: N#CC1=C(N)OC2=C(C(=O)CC(c3ccco3)C2)C1c1ccccc1 (stereo not given)
pIC50: < 3.50
--
compound: N#CC1=C(N)OC2=C(C(=O)CC(c3cccs3)C2)C1c1ccc([N+](=O)[O-])cc1 (stereo not given)
pIC50: < 3.50
--
compound: COc1ccc(C2C(C#N)=C(N)OC3=C2C(=O)CC(c2cccc4ccccc24)C3)cc1 (stereo not given)
pIC50: < 3.50
--
compound: CC1C(C#N)=C(N)OC2=C1C(=O)CC(c1ccccc1)C2 (stereo not given)
pIC50: < 3.50

These entries and their values trace back to ChEMBL document CHEMBL1140931.
